Target protein (sequence): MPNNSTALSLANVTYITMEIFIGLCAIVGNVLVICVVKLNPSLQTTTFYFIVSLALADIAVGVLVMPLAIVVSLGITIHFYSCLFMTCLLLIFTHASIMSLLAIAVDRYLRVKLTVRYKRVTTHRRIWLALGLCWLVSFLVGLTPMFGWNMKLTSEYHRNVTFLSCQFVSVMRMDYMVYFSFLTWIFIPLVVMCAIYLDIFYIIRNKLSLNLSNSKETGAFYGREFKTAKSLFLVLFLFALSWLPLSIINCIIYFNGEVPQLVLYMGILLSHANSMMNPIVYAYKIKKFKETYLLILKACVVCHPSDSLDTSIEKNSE
Record: compiled Ki on the protein given by its sequence from multiple reports.
Answers are plain numbers, in nM.

I would be grateful if you could provide Ki for each of the following entries.
1. Nc1nc(C(=O)NCc2ccccc2)cc(-c2ccco2)n1
2. Nc1ncnc2c1nc(Br)n2CCCO
3. Cn1cc2c(nc(NC(=O)NC3CCN(Cc4cccnc4)CC3)n3nc(-c4ccco4)nc23)n1

1: 857; 2: 3200; 3: 44

###

Molecular target: UniProt P0DMS8
Sequence (P0DMS8 whole entry): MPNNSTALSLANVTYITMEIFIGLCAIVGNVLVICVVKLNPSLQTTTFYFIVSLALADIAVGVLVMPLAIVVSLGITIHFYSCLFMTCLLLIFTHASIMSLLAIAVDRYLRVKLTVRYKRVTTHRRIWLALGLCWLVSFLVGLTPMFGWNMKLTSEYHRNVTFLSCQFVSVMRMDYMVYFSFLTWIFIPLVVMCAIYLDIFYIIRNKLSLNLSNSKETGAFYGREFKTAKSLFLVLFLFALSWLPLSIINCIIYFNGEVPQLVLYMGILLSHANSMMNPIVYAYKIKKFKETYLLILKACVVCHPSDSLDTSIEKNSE
pKi: −log10 of the molar value.
Record: compiled pKi on UniProt P0DMS8 from multiple reports.

Here is how some compounds turned out for pKi.
INSERT INTO measurements (smiles_notation, val) VALUES
  ('Cn1c(=O)c2c(nc3n2CCN(CCCc2ccc(Cl)cc2)C3)n(C)c1=O', '< 5.00'),
  ('CCCn1c(=O)c2[nH]c(-c3cc(C)n(CC(=O)Nc4ccc(Br)cc4)n3)nc2n(CCC)c1=O', '< 6.00'),
  ('CC(C)Cn1c(=O)c2nc(-c3cc(OCC(=O)Nc4ccc(F)cc4)nn3C)[nH]c2n(CC(C)C)c1=O', '< 6.00');

Which pKi is listed for Oc1c(-c2ccco2)nnc2nc3ccccc3n12 ? < 6.00

###

Record: compiled Ki on Adenosine receptor A3 (Homo sapiens, UniProt P0DMS8) from multiple reports.

Here is how some molecules turned out for Ki.
INSERT INTO measurements (smiles_notation, val) VALUES
  ('CC(=O)COc1cccc2cc(-c3ccc(Br)cc3)c(=O)oc12', '> 30 µM'),
  ('CCCn1cc2c(nc(NC(=O)Cc3cccc4ccccc34)n3nc(-c4ccco4)nc23)n1', '0.0173 µM'),
  ('O=C(NC1CCC1)[C@H]1S[C@@H](n2cnc3c(NCc4cccc(I)c4)nc(Cl)nc32)[C@H](O)[C@@H]1O', '0.0182 µM');

Which Ki is listed for COc1ccc(-n2nc3c(=O)[nH]c4ncccc4n3c2=O)cc1 ? 0.0033 µM
